TEST_NAME: Phase I plasma pharmacokinetics in patients
Type: in vivo, human
MEASUREMENT_PARAMETERS: human, plasma, po, 100 mg, Day 1, 100 mg b.i.d. p.o. (n=3), median, course 1
MEASURED_QUANTITY: AUC(0-inf) (ng·h/mL)
One number for each entry, in ng·h/mL.

AUC(0-inf) reported for this compound CC[C@H](CO)Nc1nc(NCc2ccccc2)c2ncn(C(C)C)c2n1 : 1500

====

TEST_NAME: Phase I plasma pharmacokinetics in patients
Type: in vivo, human
MEASUREMENT_PARAMETERS: human, plasma, po, 800 mg, Day 1, 800 mg b.i.d. p.o. (n=12), median, course 1; read-out: Cmax
MEASURED_QUANTITY: Cmax (ng/mL)
Answers are plain numbers, in ng/mL.

Per the records, this molecule ( CC[C@H](CO)Nc1nc(NCc2ccccc2)c2ncn(C(C)C)c2n1 ) has Cmax equal to 3160

====

TEST_NAME: Phase I plasma pharmacokinetics in patients
Type: in vivo, human
MEASUREMENT_PARAMETERS: human, plasma, po, 800 mg, Day 7, 800 mg b.i.d. p.o. (n=8), median, course 1
MEASURED_QUANTITY: AUC(0-t) (ng·h/mL)
One number for each entry, in ng·h/mL.

Consider CC[C@H](CO)Nc1nc(NCc2ccccc2)c2ncn(C(C)C)c2n1 [Seliciclib] . Its measured AUC(0-t) is 21300

====

TEST_NAME: Phase I plasma pharmacokinetics in patients
Assay type: in vivo, human
MEASUREMENT_PARAMETERS: human, plasma, po, 100 mg, Day 7, 100 mg b.i.d. p.o. (n=3), mean, course 1; read-out: Cmax
MEASURED_QUANTITY: Cmax (ng/mL)
One number for each entry, in ng/mL.

Briefly, Cmax measured for CC[C@H](CO)Nc1nc(NCc2ccccc2)c2ncn(C(C)C)c2n1 : 162

====

TEST_NAME: Phase I plasma pharmacokinetics in patients
Assay type: in vivo, human
MEASUREMENT_PARAMETERS: human, plasma, po, all dose levels, oral; read-out: mean Tmax
MEASURED_QUANTITY: Tmax (h)
One number for each entry, in h.

Record CC[C@H](CO)Nc1nc(NCc2ccccc2)c2ncn(C(C)C)c2n1 [Seliciclib] . Reported Tmax: 2.55

====

TEST_NAME: Phase I plasma pharmacokinetics in patients
Assay type: in vivo, human
MEASUREMENT_PARAMETERS: human, plasma, po, 100 mg, Day 1, 100 mg b.i.d. p.o. (n=3), mean, course 1; read-out: t1/2
Method: For PK analysis, blood samples (approximately 8 ml each) were collected in tubes with lithium heparin anticoagulant at the following time points: pre-dose and 0.5, 1, 1.5, 2, 4, 8, 12 (pre-second dose), 13, 14 and 24 h (pre-dose if day 2) after dosing on both days 1 and 7 of the first cycle. The samples were then centrifuged at 3000 r.p.m at 4°C for 10 min, the plasma transferred to 2 ml cryovials and frozen at −70°C until analysis. […]
MEASURED_QUANTITY: half-life (h)
One number for each entry, in h.

# half-life (molecule: CC[C@H](CO)Nc1nc(NCc2ccccc2)c2ncn(C(C)C)c2n1 [Seliciclib] ) is 4.45

====

TEST_NAME: Phase I plasma pharmacokinetics in patients
Assay type: in vivo, human
MEASUREMENT_PARAMETERS: human, plasma, po, 200 mg, Day 7, 200 mg b.i.d. p.o. (n=6), mean, course 1; read-out: t1/2
MEASURED_QUANTITY: half-life

Quick note, half-life for CC[C@H](CO)Nc1nc(NCc2ccccc2)c2ncn(C(C)C)c2n1 landed at 13 h

====

TEST_NAME: Phase I plasma pharmacokinetics in patients
Format: in vivo, human
MEASUREMENT_PARAMETERS: human, plasma, po, 200 mg, Day 7, 200 mg b.i.d. p.o. (n=6), median, course 1
Description: For PK analysis, blood samples (approximately 8 ml each) were collected in tubes with lithium heparin anticoagulant at the following time points: pre-dose and 0.5, 1, 1.5, 2, 4, 8, 12 (pre-second dose), 13, 14 and 24 h (pre-dose if day 2) after dosing on both days 1 and 7 of the first cycle. The samples were then centrifuged at 3000 r.p.m at 4°C for 10 min, the plasma transferred to 2 ml cryovials and frozen at −70°C until analysis. […]
MEASURED_QUANTITY: AUC(0-t)
Quote the value and follow it with the unit of measurement.

Entry CC[C@H](CO)Nc1nc(NCc2ccccc2)c2ncn(C(C)C)c2n1 ; AUC(0-t) = 3080 ng·h/mL

====

TEST_NAME: Phase I plasma pharmacokinetics in patients
Type: in vivo, human
MEASUREMENT_PARAMETERS: human, plasma, po, 800 mg, Day 1, 800 mg b.i.d. p.o. (n=12), mean, course 1; read-out: Cmax
Protocol: For PK analysis, blood samples (approximately 8 ml each) were collected in tubes with lithium heparin anticoagulant at the following time points: pre-dose and 0.5, 1, 1.5, 2, 4, 8, 12 (pre-second dose), 13, 14 and 24 h (pre-dose if day 2) after dosing on both days 1 and 7 of the first cycle. The samples were then centrifuged at 3000 r.p.m at 4°C for 10 min, the plasma transferred to 2 ml cryovials and frozen at −70°C until analysis. […]
MEASURED_QUANTITY: Cmax (ng/mL)
One number for each entry, in ng/mL.

// sample CC[C@H](CO)Nc1nc(NCc2ccccc2)c2ncn(C(C)C)c2n1 , its Cmax was 3200

====

TEST_NAME: Phase I plasma pharmacokinetics in patients
Assay type: in vivo, human
MEASUREMENT_PARAMETERS: human, plasma, po, 100 mg, Day 1, 100 mg b.i.d. p.o. (n=3), mean, course 1; read-out: Tmax (converted)
MEASURED_QUANTITY: Tmax (h)
One number for each entry, in h.

// CC[C@H](CO)Nc1nc(NCc2ccccc2)c2ncn(C(C)C)c2n1 : Tmax value = 1.87

====

TEST_NAME: Phase I plasma pharmacokinetics in patients
Format: in vivo, human
MEASUREMENT_PARAMETERS: human, plasma, po, 800 mg, Day 7, 800 mg b.i.d. p.o. (n=8), mean, course 1; read-out: Tmax (converted)
MEASURED_QUANTITY: Tmax (h)
Answers are plain numbers, in h.

Form: molecule = CC[C@H](CO)Nc1nc(NCc2ccccc2)c2ncn(C(C)C)c2n1 ; Tmax = 1.65

====

TEST_NAME: Phase I plasma pharmacokinetics in patients
Format: in vivo, human
MEASUREMENT_PARAMETERS: human, plasma, po, 100 mg, Day 7, 100 mg b.i.d. p.o. (n=3), median, course 1; read-out: Cmax
MEASURED_QUANTITY: Cmax (µg/mL)
Answers are plain numbers, in µg/mL.

The compound listed as CC[C@H](CO)Nc1nc(NCc2ccccc2)c2ncn(C(C)C)c2n1 shows Cmax equal to 0.152

====

TEST_NAME: Phase I plasma pharmacokinetics in patients
Format: in vivo, human
MEASUREMENT_PARAMETERS: human, plasma, po, 200 mg, Day 1, 200 mg b.i.d. p.o. (n=6), mean, course 1
MEASURED_QUANTITY: AUC(0-t) (ng·h/mL)
Answers are plain numbers, in ng·h/mL.

AUC(0-t) reported for this compound CC[C@H](CO)Nc1nc(NCc2ccccc2)c2ncn(C(C)C)c2n1 : 2770

====

TEST_NAME: Phase I plasma pharmacokinetics in patients
Type: in vivo, human
MEASUREMENT_PARAMETERS: human, plasma, po, 800 mg, Day 1, 800 mg b.i.d. p.o. (n=12), mean, course 1; read-out: t1/2
MEASURED_QUANTITY: half-life (h)
Answers are plain numbers, in h.

Just so you know, measured half-life for CC[C@H](CO)Nc1nc(NCc2ccccc2)c2ncn(C(C)C)c2n1 came out at 3.65

====

TEST_NAME: Phase I plasma pharmacokinetics in patients
Assay type: in vivo, human
MEASUREMENT_PARAMETERS: human, plasma, po, 800 mg, Day 7, 800 mg b.i.d. p.o. (n=8), mean, course 1; read-out: Cmax
MEASURED_QUANTITY: Cmax (ng/mL)
Give bare numbers, in ng/mL.

The reported value for CC[C@H](CO)Nc1nc(NCc2ccccc2)c2ncn(C(C)C)c2n1 in terms of Cmax is 2770

====

TEST_NAME: Phase I plasma pharmacokinetics in patients
Type: in vivo, human
MEASUREMENT_PARAMETERS: human, plasma, po, 100 mg, Day 1, 100 mg b.i.d. p.o. (n=3), median, course 1; read-out: t1/2
MEASURED_QUANTITY: half-life (min)
Give bare numbers, in min.

Form field half-life, entry CC[C@H](CO)Nc1nc(NCc2ccccc2)c2ncn(C(C)C)c2n1 : 278

# credit: paper PMC2360206
